Give measured IC50 for each item. Keep answers brief.
- EXPERIMENTAL SYSTEM: Histone deacetylase
- PROTOCOL TEXT: Inhibition of HDAC (unknown origin)
- Type: protein assay, Homo sapiens

In plain terms, "Cc1noc(C)c1-c1ccc2c(c1)c(CCc1ccccc1)cn2CCCCCC(=O)NO" has a documented IC50 of 291 nM

In plain terms, "COc1cc(O)c(C(=O)Nc2ccc(F)c(Cl)c2)cc1NC(=O)CCCCCC(=O)NO" has a documented IC50 of < 1000 nM

In plain terms, "O=C(CCCCCC(=O)Nc1ccc(O)c(C(=O)Nc2ccc(F)c(Cl)c2)c1)NO" has a documented IC50 of < 1000 nM

In plain terms, "O=C(CCCCCC(=O)Nc1ccc(O)c(C(=O)Nc2ccc(Cl)c(C(F)(F)F)c2)c1)NO" has a documented IC50 of < 1000 nM

In plain terms, "Cn1cc(-c2ccnc(Nc3ccc(C(=O)NCCC(=O)NO)cc3)n2)c2ccccc21" has a documented IC50 of < 1000 nM

In plain terms, "O=C(CCCCOc1ccccc1C(=O)Nc1cccc2[nH]cnc12)NO" has a documented IC50 of 2700 nM

In plain terms, "Cc1ccccc1Cc1cn(CCCCCCC(=O)NO)c2ccc(-c3c(C)noc3C)cc12" has a documented IC50 of 291 nM

In plain terms, C=CC(=O)Nc1cc(Nc2nccc(-c3cn(C)c4ccccc34)n2)c(OC)cc1N(C)CCN(C)C [OSIMERTINIB] has a documented IC50 of < 1000 nM

====

- Tested on: OCI-AML-3
- PROTOCOL TEXT: Antiproliferative activity against human OCI-AML-3 cells by MTT assay
- Format: functional, cell-based
METRIC: pIC50
# pIC50 = -log10(concentration in molar units)

In plain terms, "COc1cc(OC)c2c(=O)[nH]c(-c3ccc(OCCCC(=O)NO)cc3)nc2c1" has a documented pIC50 of 5.96

====

- EXPERIMENTAL SYSTEM: Histone deacetylase
- PROTOCOL TEXT: Inhibition of HDAC (unknown origin)
- Assay type: protein assay, Homo sapiens
METRIC: IC50

In plain terms, "Cc1ccc(Cc2cn(CCCCCC(=O)NO)c3ccc(-c4c(C)noc4C)cc23)cc1" has a documented IC50 of 291 nM

In plain terms, "C#Cc1cccc(NC(=O)c2cc(NC(=O)CCCCCCC(=O)NO)ccc2O)c1" has a documented IC50 of < 1000 nM

In plain terms, "C#Cc1cccc(NC(=O)c2cc(NC(=O)CCCCCC(=O)NO)c(OC)cc2O)c1" has a documented IC50 of < 1000 nM

In plain terms, "Cn1cc(-c2ccnc(Nc3ccc(C(=O)NCCCCCC(=O)NO)cc3)n2)c2ccccc21" has a documented IC50 of < 1000 nM

In plain terms, "Cc1ccc(Cc2cn(CCCCCCC(=O)NO)c3ccc(-c4c(C)noc4C)cc23)cc1" has a documented IC50 of 291 nM

In plain terms, "COc1cc(OC)c2c(=O)[nH]c(-c3ccc(OC/C=C/C(=O)NO)cc3)nc2c1" has a documented IC50 of 291 nM

In plain terms, "Cc1sc2c(c1C)C(c1ccc(Cl)cc1)=N[C@@H](CC(=O)OC(C)(C)C)c1nnc(C)n1-2" has a documented IC50 of 291 nM

In plain terms, "Cc1noc(C)c1-c1ccc2c(c1)c(CCc1ccc(F)cc1)cn2CCCCCC(=O)NO" has a documented IC50 of 291 nM

In plain terms, "O=C(CCCCCC(=O)Nc1ccc(O)c(C(=O)Nc2ccc(F)c(F)c2)c1)NO" has a documented IC50 of < 1000 nM

In plain terms, "Cc1noc(C)c1-c1ccc2c(c1)c(Cc1ccccc1)cn2CCCCCCC(=O)NO" has a documented IC50 of 291 nM

In plain terms, "COc1cc(OC)c2c(=O)[nH]c(-c3cc(C)c(O)c(C)c3)nc2c1" has a documented IC50 of 291000 nM

In plain terms, "COc1cc(C(=O)NCCCCCC(=O)NO)ccc1Nc1nccc(-c2cn(C)c3ccccc23)n1" has a documented IC50 of < 1000 nM

In plain terms, "Cc1noc(C)c1-c1ccc2c(c1)c(CCc1ccccc1)cn2CCCCCCC(=O)NO" has a documented IC50 of 291 nM

In plain terms, "COc1cc(OC)c2c(=O)[nH]c(-c3ccc(OCCCCCCCC(=O)NO)cc3)nc2c1" has a documented IC50 of 291 nM

In plain terms, "COc1cc(OC)c2c(=O)[nH]c(-c3ccc(OCCCCC(=O)NO)cc3)nc2c1" has a documented IC50 of 291 nM

In plain terms, "Cn1cc(-c2ccnc(Nc3ccc(C(=O)NCCCCC(=O)NO)cc3)n2)c2ccccc21" has a documented IC50 of < 1000 nM

In plain terms, "O=C(CCCCCC(=O)Nc1ccc(O)c(C(=O)Nc2ccc(OCc3cccc(F)c3)c(Cl)c2)c1)NO" has a documented IC50 of < 1000 nM

In plain terms, "O=C(CCCCCC(=O)Nc1ccc(O)c(C(=O)Nc2ccc(Cl)c(Cl)c2)c1)NO" has a documented IC50 of < 1000 nM

In plain terms, "COc1cc2ncnc(Nc3ccc(Br)cc3)c2cc1OCCCCCC(=O)NO" has a documented IC50 of 2.2 nM

In plain terms, "COc1cc(OC)c2c(=O)[nH]c(-c3ccc(OCCCCCC(=O)NO)cc3)nc2c1" has a documented IC50 of 291 nM

====

- System: MCF7
- PROTOCOL TEXT: Cytotoxicity against human MCF7 cells assessed as reduction in cell viability in presence of SAHA by MTT assay
- Assay type: functional, cell-based
METRIC: IC50 (nM)
The reply should contain only the number, in nM.

Recorded IC50 for "C#Cc1cccc(Nc2ncnc3cc(OCCOC)c(OCCOC)cc23)c1" on MCF7 was 2700

====

Give measured GI50 for each item. Keep answers brief.
- Test system: THP-1
- PROTOCOL TEXT: Growth inhibition of human THP-1 cells
- Format: functional
The reply should contain only the number, in µM.

In plain terms, "COc1cc(OC)c2c(=O)[nH]c(-c3ccc(OCCCCCC(=O)NO)cc3)nc2c1" has a documented GI50 of 15.5

In plain terms, "Cc1noc(C)c1-c1ccc2c(c1)c(Cc1ccccc1)cn2CCCCCCC(=O)NO" has a documented GI50 of 15.5

In plain terms, "COc1cc(OC)c2c(=O)[nH]c(-c3ccc(OCc4cc(C)c(/C=C/C(=O)NO)c(C)c4)cc3)nc2c1" has a documented GI50 of 15.5

In plain terms, "Cc1cccc(Cc2cn(CCCCCC(=O)NO)c3ccc(-c4c(C)noc4C)cc23)c1" has a documented GI50 of 15.5

In plain terms, "COc1cc(OC)c2c(=O)[nH]c(-c3ccc(OCCCC(=O)NO)cc3)nc2c1" has a documented GI50 of 15.5

In plain terms, "Cc1ccccc1Cc1cn(CCCCCCC(=O)NO)c2ccc(-c3c(C)noc3C)cc12" has a documented GI50 of 15.5

In plain terms, "Cc1ccccc1Cc1cn(CCCCCC(=O)NO)c2ccc(-c3c(C)noc3C)cc12" has a documented GI50 of 15.5

In plain terms, "COc1cc(OC)c2c(=O)[nH]c(-c3cc(C)c(O)c(C)c3)nc2c1" has a documented GI50 of 15.5

In plain terms, "COc1cc(OC)c2c(=O)[nH]c(-c3ccc(OCCCCCCC(=O)NO)cc3)nc2c1" has a documented GI50 of 15.5

In plain terms, "Cc1noc(C)c1-c1ccc2c(c1)c(Cc1ccc(F)cc1)cn2CCCCCC(=O)NO" has a documented GI50 of 15.5

In plain terms, "COc1cc(OC)c2c(=O)[nH]c(-c3ccc(Oc4ccc(C(=O)NO)cn4)cc3)nc2c1" has a documented GI50 of 15.5

In plain terms, "COc1cc(OC)c2c(=O)[nH]c(-c3cc(C)c(OCCCCCC(=O)NO)c(C)c3)nc2c1" has a documented GI50 of 15.5

In plain terms, "Cc1ccc(Cc2cn(CCCCCC(=O)NO)c3ccc(-c4c(C)noc4C)cc23)cc1" has a documented GI50 of 15.5

In plain terms, COC(c1c(F)cccc1Cl)c1c[nH]c2ncc(-c3c(C)noc3C)cc12 (centres undefined) has a documented GI50 of 15.5

In plain terms, "Cc1noc(C)c1-c1ccc2c(c1)c(CCc1ccc(F)cc1)cn2CCCCCCC(=O)NO" has a documented GI50 of 15.5

In plain terms, "COc1cc(OC)c2c(=O)[nH]c(-c3ccc(OC/C=C/C(=O)NO)cc3)nc2c1" has a documented GI50 of 15.5

In plain terms, "COc1cc(OC)c2c(=O)[nH]c(-c3ccc(OCCCCC(=O)NO)cc3)nc2c1" has a documented GI50 of 15.5

In plain terms, "Cc1cccc(Cc2cn(CCCCCCC(=O)NO)c3ccc(-c4c(C)noc4C)cc23)c1" has a documented GI50 of 15.5

In plain terms, "COc1cc(OC)c2c(=O)[nH]c(-c3ccc(OCc4ccc(/C=C/C(=O)NO)cc4)cc3)nc2c1" has a documented GI50 of 15.5
